Data origin: patent US20240228488A1

IC90: recorded values
biological target: plasma kallikrein (Homo sapiens); construct: from tissue; test: Neat human plasma assay, FXIIa contact pathway-activated, PFR-AMC substrate; type: biochemical; settings: citrated human plasma 78% final, 10 nM human FXIIa, 100 μM PFR-AMC; read-out: Human Plasma Assay: IC90
Sequence (P03952 391-638 limits assumed): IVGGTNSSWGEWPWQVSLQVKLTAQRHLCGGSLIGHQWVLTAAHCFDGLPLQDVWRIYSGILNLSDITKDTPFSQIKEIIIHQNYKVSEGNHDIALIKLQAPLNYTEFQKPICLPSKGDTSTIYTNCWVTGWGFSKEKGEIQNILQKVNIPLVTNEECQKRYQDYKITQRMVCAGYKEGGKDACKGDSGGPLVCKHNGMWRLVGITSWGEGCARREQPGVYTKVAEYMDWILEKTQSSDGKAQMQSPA
Sequence (P03952 20-390 partner limits assumed): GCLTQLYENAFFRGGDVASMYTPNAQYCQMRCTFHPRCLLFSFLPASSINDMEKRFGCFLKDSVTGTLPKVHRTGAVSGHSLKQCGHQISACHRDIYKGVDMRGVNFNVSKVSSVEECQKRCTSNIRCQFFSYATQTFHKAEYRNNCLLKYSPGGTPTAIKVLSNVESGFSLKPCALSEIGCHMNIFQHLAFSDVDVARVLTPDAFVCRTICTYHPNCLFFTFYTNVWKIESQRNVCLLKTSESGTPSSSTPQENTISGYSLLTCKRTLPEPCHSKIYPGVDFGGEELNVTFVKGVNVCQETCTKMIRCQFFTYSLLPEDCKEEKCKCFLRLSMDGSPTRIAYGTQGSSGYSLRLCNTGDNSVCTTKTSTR

Answered examples (5):
Cc1nc([C@H]2C[C@@H]2C(=O)Nc2cc(NCc3cn4cc(C5CC5)cc(N5CC(=O)N(C)C5=O)c4n3)ncn2)ncc1F (racemic) = 400 to 1500 nM
Cc1cc(OCc2cn3cc(C4CC4)cc(N4CC(=O)N(C)C4=O)c3n2)cc(NC(=O)[C@H]2C[C@@H]2c2nccc(C)n2)n1 = < 400 nM
COCc1nc(NC(=O)[C@H]2C[C@@H]2c2nccc(C)n2)cc(OCc2cn3cc(C4CC4)cc(N4CC(=O)N(C)C4=O)c3n2)n1 = 400 to 1500 nM
CC(=O)c1cc(C2CC2)cn2cc(CNc3cc(NC(=O)[C@H]4C[C@@H]4c4cccc(Cl)c4)ncn3)nc12 = 1500 to 10000 nM
CN(C)S(=O)(=O)c1cc(C2CC2)cn2cc(CNc3cc(NC(=O)[C@H]4C[C@@H]4c4cccc(Cl)c4)ncn3)nc12 = 1500 to 10000 nM

Turning now to a further record.
Lab note: measured IC90 of Cc1ccnc([C@H]2C[C@@H]2C(=O)Nc2cc(NCc3cn4cc(C5CC5)ccc4n3)ncn2)n1 was 10000 to 48000 nM
